system: 996289-038-R-J1-PDC complex spheroid viability; experiment: Anticancer human tumor 996289-038-R-J1-PDC patient-derived colon adenocarcinoma cell line growth inhibition [CLK]; details: curve of first compound; second compound 10 µM;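 further: spheroids exposed to the agents for 7 days before readout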
Reported pIC50 values follow for various molecules
pIC50 is a log-scale quantity: -log10 of the concentration expressed in molar.

Examples with answers:
| molecule | pIC50 |
| --- | --- |
| Nc1ccccc1NC(=O)c1ccc(CNC(=O)OCc2cccnc2)cc1 + CNC(=O)c1ccc(Nc2nc(OC3CCCC3)c3c(-c4ccc5nc(C)oc5c4)c[nH]c3n2)c(OC)c1 | 5.74 |
| COc1cccc2c1C(=O)c1c(O)c3c(c(O)c1C2=O)CC(O)(C(=O)CO)CC3OC1CC(N)C(O)C(C)O1 (stereo not given) + CNC(=O)c1ccc(Nc2nc(OC3CCCC3)c3c(-c4ccc5nc(C)oc5c4)c[nH]c3n2)c(OC)c1 | 7.17 |

Task: State its pIC50 for this molecule: CC(C)CC(NC(=O)C(Cc1ccccc1)NC(=O)c1cnccn1)B(O)O (stereo not given) + CNC(=O)c1ccc(Nc2nc(OC3CCCC3)c3c(-c4ccc5nc(C)oc5c4)c[nH]c3n2)c(OC)c1
Result: 8.96

Where these numbers come from: PubChem BioAssay AID2060600
